Measured Target: cAMP and cAMP-inhibited cGMP 3',5'-cyclic phosphodiesterase 10A (Homo sapiens, UniProt Q9Y233)
Sequence (Q9Y233 whole entry): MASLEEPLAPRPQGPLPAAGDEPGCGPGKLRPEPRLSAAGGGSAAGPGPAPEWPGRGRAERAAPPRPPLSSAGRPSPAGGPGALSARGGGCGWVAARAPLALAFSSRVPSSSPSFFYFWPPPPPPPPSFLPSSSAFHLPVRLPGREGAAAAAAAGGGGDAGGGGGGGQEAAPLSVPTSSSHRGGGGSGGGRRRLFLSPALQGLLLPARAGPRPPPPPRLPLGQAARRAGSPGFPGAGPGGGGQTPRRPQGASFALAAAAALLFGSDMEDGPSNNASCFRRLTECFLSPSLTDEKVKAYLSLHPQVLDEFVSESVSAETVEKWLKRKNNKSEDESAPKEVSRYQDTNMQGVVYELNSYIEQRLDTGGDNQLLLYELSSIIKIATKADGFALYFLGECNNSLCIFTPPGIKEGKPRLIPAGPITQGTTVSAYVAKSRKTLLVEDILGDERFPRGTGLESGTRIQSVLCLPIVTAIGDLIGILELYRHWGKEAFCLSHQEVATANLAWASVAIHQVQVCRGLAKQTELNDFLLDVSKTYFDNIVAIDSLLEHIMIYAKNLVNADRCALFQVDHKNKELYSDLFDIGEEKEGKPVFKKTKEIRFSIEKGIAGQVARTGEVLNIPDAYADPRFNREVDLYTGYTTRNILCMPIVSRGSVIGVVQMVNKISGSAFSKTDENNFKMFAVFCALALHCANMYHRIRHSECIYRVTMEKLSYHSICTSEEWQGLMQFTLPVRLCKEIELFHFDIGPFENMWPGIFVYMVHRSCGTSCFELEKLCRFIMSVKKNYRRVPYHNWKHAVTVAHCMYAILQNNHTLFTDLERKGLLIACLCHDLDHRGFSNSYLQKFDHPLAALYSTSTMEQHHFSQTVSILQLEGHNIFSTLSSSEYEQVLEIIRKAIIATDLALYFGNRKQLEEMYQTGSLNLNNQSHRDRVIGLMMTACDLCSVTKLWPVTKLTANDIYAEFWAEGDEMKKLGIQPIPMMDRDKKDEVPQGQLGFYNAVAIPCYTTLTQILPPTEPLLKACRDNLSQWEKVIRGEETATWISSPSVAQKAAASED
Test Details: Diaxonhit Phosphodiesterase Assay: The phosphodiesterase assay was developed using the LANCE cAMP kit (PerkinElmer). The assay buffer contained HBSS with 5 mM HEPES, 0.1% BSA, and 1.5 mM MgCl2, pH 7.4. PDE10A (BPS Bioscience) was used at 200 pg/well (with a specific activity of 3200 pmole/min/ug with assay conditions: 10 mM Tris-HCl, pH 7.4, 10 mM MgCl2, 1 mM MnCl2, 200 uM cAMP, 2.5 kU 5' nucleotidase, 37° C., 20 min) and PDE4D3 (BPS Bioscience) was used at 100 pg/well (with a specific activity of 32713 pmole/min/ug with assay conditions: 10 mM Tris-HCl, pH 7.4, 10 mM MgCl2, 1 mM MnCl2, 200 uM cAMP, 2.5 kU 5' nucleotidase, 37° C., 20 min). The Biotin-cAMP tracer, supplied in 10 mmol/L Tris-HCl buffered (pH 8.0) salt solution with 1 mmol/L ethylenediaminetetraacetic acid (EDTA), 0.1% bovine serum albumin (BSA), and 0.05% sodium azide, is used at a dilution of 1/375. The assay detection mixture contained the LANCE Eu-W8044 labeled streptavidin 1/2250 (supplied in 50 mmol/L Tris-HCl buffer).
pIC50: −log10 of the molar value.
Measurement Type: pIC50

For orientation, consider the following solved cases.
Smiles Input: CCc1ncc(Cc2ccc3nc(C)ccc3c2)c2cc(OC)c(OC)cc12
pIC50: 7.55
//
Smiles Input: CCCc1ncc(Cc2ccc3cccc(OCC(=O)O)c3n2)c2cc(OC)c(OC)cc12
pIC50: 8.31
//
Smiles Input: CCCc1ncc(Cc2ccc3cccc(NC(=O)COC(C)=O)c3n2)c2cc(OC)c(OC)cc12
pIC50: 6.69
//
Smiles Input: COc1cc2cncc(Cc3ccc4cccc(OCC(N)=O)c4n3)c2cc1OC
pIC50: 7.68
//
Smiles Input: COc1cc2c(Cc3ccc4oc5ccccc5c4c3)cnc(C)c2cc1OC
pIC50: 6.74
//
Smiles Input: CCc1ncc(Cc2cnc3ccc(N4CCCC4=O)cc3c2)c2cc(OC)c(OC)cc12
pIC50: 7.82

P. COc1cc2cnc(C)c(Cc3ccc4ccccc4c3)c2cc1OC
Q. COc1cc2cncc(Cc3ccc4ncccc4c3)c2cc1OC
input: // which entry has the larger pIC50 value, P or Q ? // return label of chosen record
output: Q

P. CCc1ncc(Cc2cnc3ccc(N)cc3c2)c2cc(OC)c(OC)cc12
Q. COc1cc2cncc(Cc3ccc4[nH]cnc4c3)c2cc1OC
R. COc1cc2c(Cc3cnc4cc(C)ccc4c3)cnc(C)c2cc1OC
input: Please put the entries in order of rising pIC50. Order the labels as requested and list them.
output: Q, P, R

a. COCc1ncc(Cc2ccc3cccc(O)c3n2)c2cc(OC)c(OC)cc12
b. CCCc1ncc(Cc2cnc3ccc(O)cc3c2)c2cc(OC)c(OC)cc12
input: // which entry has the larger pIC50 value, a or b ? // return label of chosen record
output: b
(b: 8.03, a: 7.72)

I. CCCCc1ncc(Cc2cnc3ccccc3c2)c2cc(OC)c(OC)cc12
II. CCc1ncc(Cc2cnc3ccccc3c2)c2cc(OC)c(OC)cc12
III. CCn1c(=O)oc2ccc(Cc3cncc4cc(OC)c(OC)cc34)cc21
input: Please put the entries in order of rising pIC50. Order the labels as requested and list them.
output: I, II, III
(I: 7.04, II: 7.72, III: 8.11)

P. CCc1ncc(Cc2cnc3ccc(O)cc3c2)c2cc(OC)c(OC)cc12
Q. CCCc1ncc(Cc2cnc3cc(C)ccc3c2)c2cc(OC)c(OC)cc12
R. COc1cc2cncc(Cc3ccc4oc(-c5ccccc5)nc4c3)c2cc1OC
S. c1ccc2c(c1)oc1ccc(Cc3cncc4cc5c(cc34)OCO5)cc12
T. CCCc1ncc(Cc2ccc3cccc(OCCNC(C)=O)c3n2)c2cc(OC)c(OC)cc12
input: Sequence the entries by pIC50, beginning with the highest number. Order the labels as requested and list them.
output: Q, P, T, R, S
(Q: 8.28, P: 7.55, T: 7.24, R: 6.72, S: 5.50)

1. COc1cc2cncc(Cc3coc4c(Cl)cc(Cl)cc4c3=O)c2cc1OC
2. CCc1ncc(Cc2cnc3ccc(NS(N)(=O)=O)cc3c2)c2cc(OC)c(OC)cc12
input: Looking only at measured pIC50, which entry is lower, 1 or 2 ? // return label of chosen record
output: 1

I. COc1cc2cncc(Cc3ccc4c(c3)OCCN4C)c2cc1OC
II. COc1cc2c(Cc3cnc4ccc(O)cc4c3)cnc(C)c2cc1OC
III. COc1cc2c(Cc3cnc4ccccc4c3)cnc(C3CC3)c2cc1OC
input: Sequence the entries by pIC50, beginning with the highest number. Order the labels as requested and list them.
output: II, III, I

P. COc1cc2cncc(Cc3ccc4ccccc4c3)c2cc1OC
Q. CCCc1ncc(Cc2cc3cc(OC)ccc3nc2OCCNC(C)=O)c2cc(OC)c(OC)cc12
R. COc1cc2cncc(Cc3coc4ccc(Cl)cc4c3=O)c2cc1OC
input: Sequence the entries by pIC50, beginning with the highest number. Order the labels as requested and list them.
output: R, Q, P
(R: 7.70, Q: 7.19, P: 6.98)

Numbers sourced from ChEMBL document CHEMBL3886179.
